All values here come from patent US20150266963A1.

- Assayed System: T1, recombinant human CD70 (Flag-TNC-CD70) (human, UniProt P32970 39-193)
- T1 construct: extracellular domain; Captured by anti-Flag mAb in ELISA; as 'recombinant human CD70' immobilised on Biacore CM5 chips; TNC is for trimerisation; also called recombinant CD70; human recombinant CD70; not shown: Flag tag and TNC trimerisation domain
- T1 sequence (looked up): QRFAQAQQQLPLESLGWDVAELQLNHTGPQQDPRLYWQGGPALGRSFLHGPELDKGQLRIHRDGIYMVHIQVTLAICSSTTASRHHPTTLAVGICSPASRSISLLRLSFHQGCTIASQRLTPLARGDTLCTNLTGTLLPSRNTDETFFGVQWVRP
- Procedure Summary: Biacore; recombinant human CD70 on CM5 chip; Fab injected
Would you kindly list koff for each of these binders?
Numbers only, in s⁻¹.

Sample answers from the record:
>  <Binder>
57B6 Fab (Fab, V domains shown, Llama-derived Fab) VH: QLQLVESGGGLVQPGGSLRLSCAASGFSFSHYAMSWVRQAPGKGLEWVSGDNTYDGGTRYQDSVKGRFTISRDNGKNTLYLQMNSLKPEDTAVYYCAKDTGRGIMGEYGMDYWGKGTLVTVSS VL: QTVVTQEPSLSVSPGGTVTLTCGLKSGSVTSSNYPAWYQQTPGQAPRLLIYNTNSRHSGVPSRFSGSISGNKAALTITGAQPEDEADYYCALYMGSGSANAMFGGGTHLTVLG

>  <koff (s⁻¹)>
0.0001

$$$$
>  <Binder>
9G2 Fab (Fab, V domains shown, Llama-derived Fab) VH: QVQLVESGGGLMQPGGSLRLSCAASGFTFSSSAMSWVRQAPGKGLEWVSSIYSDSSYTYYADSVKSRFTISTDNAKNTLYLQMNSLKPDDTAVYYCAGSSDYEGSFASWGQGTQVTVSS VL: QSVVTQPPSLSASPGSSVRLTCTLSSGNSVGNYDISWYQQKAGSPPRYLLYYYSDSVKHQGSGVPSRFSGSSDASANAGLLLISGLQPEDEADYYCSAYKSGSHVFGGGTKLTVLG

>  <koff (s⁻¹)>
0.00018

$$$$
>  <Binder>
59D10 Fab (Fab, V domains shown, Llama-derived Fab) VH: EVQLVESGGGLVQPGGSLRLSCAASELSFSISEMTWVRQAPGKGLEWVSGISGVTGGSSTSYADSVKGRFTISRDNDKNTLYLQMNSLIPEDTAVYYCATTSGTYYFIPEYEYWGQGTQVTVSS VL: QSVLTQPPSVSGSPGKTVTISCAGTSSDVGYGYYVSWYQQFPGMAPKLLIYDVNKRASGIADRFSGSKAGNTASLTISGLQSEDEADYYCASYRSSANAVFGGGTHLTVLG

>  <koff (s⁻¹)>
0.00139

$$$$

Return reported koff; argument: 9E1 Fab (Fab, V domains shown, Llama-derived Fab) VH: EVQLQESGGGVVQPGGSLRLSCAASGFTFDDYAMSWVRQAPGKGLEWVSSIYMYDSSTYYADSVKGRFTISTDNAKNTVYLQMNSLKSEDTAVYYCAKDINRSYGSSWSHFGPIFSSWGQGTQVTVSS VL: QAVVTQEPSLSVSPGGTVTLTCGLTSGSVTSSNYPDWYQQTPGQAPRLLIYNTNSRHSGVPSRFSGSISGNKAALTITGAQPEDEADYYCNLYMGSGGSKVFGGGTKLTVLG
0.00019
